All figures here come from PubChem BioAssay AID1159580.

Test: chemical genetic growth profiling, strain panel (AID 1159580);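 further: tested at 20 µM; growth read once vehicle control cultures reached saturation at 30 °C; 1 = growth at the plate median or of vehicle wells; lower values mean less growth of the strain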
Settings: S. cerevisiae deletion strains, growth OD, locus YKL085W, strain MDH1, active compounds read low
The whole screen tested about 5,500 compounds, of which about 2,000 (36%) were called active. Inconclusive results (about 18%) are left out. The list shows a part of the results.

{"columns": ["molecule", "normalized growth"],
 "data": [
  ["CC12CCC3C(CCC4(O)CC(O)CCC34/C=N/NC(N)=O)C1(O)CCC2C1=CC(=O)OC1 (centres undefined)", 0.994],
  ["CC(C)Nc1nc(Cl)nc(NC(C)C)n1", 1],
  ["C[C@H]1O[C@@H](O[C@H]2[C@@H](O)C[C@H](O[C@H]3[C@@H](O)C[C@H](O[C@H]4CC[C@]5(C)C6C[C@@H](O)[C@]7(C)[C@@H](C8=CC(=O)OC8)CC[C@]7(O)C6CC[C@@H]5C4)O[C@@H]3C)O[C@@H]2C)C[C@H](O)[C@@H]1O (some centres undefined)", 0.991],
  ["CSc1nc(NC(C)C)nc(NC(C)C)n1", 1.01],
  ["CC(C)(C)NCC(O)COc1cccc2c1C[C@H](O)[C@H](O)C2 (some centres undefined)", 0.99],
  ["C[C@]12CCC3C(CC[C@]4(O)C[C@@H](O)CC[C@]34C=O)[C@@]1(O)CCC2C1=CC(=O)OC1 (some centres undefined)", 0.978],
  ["O=C(O)c1cc(O)ccc1O", 1],
  ["CC1(C)S[C@@H]2[C@H](NC(=O)[C@@H](N)c3ccc(O)cc3)C(=O)N2[C@H]1C(=O)O", 1.01],
  ["Cc1ccccc1N1C(=O)c2cc(S(N)(=O)=O)c(Cl)cc2NC1C (centres undefined)", 1.03]
]}
